- system: Jak1 protein (Rattus norvegicus)
- Sequence (Q5FVF5 whole entry): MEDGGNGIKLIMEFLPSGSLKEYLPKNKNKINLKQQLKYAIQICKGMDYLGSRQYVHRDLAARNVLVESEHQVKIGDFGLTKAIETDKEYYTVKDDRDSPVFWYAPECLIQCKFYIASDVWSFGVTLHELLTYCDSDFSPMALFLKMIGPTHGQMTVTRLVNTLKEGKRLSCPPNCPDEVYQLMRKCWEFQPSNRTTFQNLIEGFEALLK
observation.type: IC50 (µM)
Report as a plain number; the unit µM is understood.

What does the data say about its IC50? Entry: `O=C(Nc1nc2cccc(-c3ccc(CN4CCS(=O)(=O)CC4)cc3)n2n1)C1CC1`
0.029

###

- measurement.protocol: Half life in rat hepatocytes
- Format: ADME, cell-based, Hepatocyte
observation.type: half-life (min)
Enter your answer as a number in min; do not include the unit.

Quick one: half-life for `O=C(Nc1nc2cccc(-c3ccc(CN4CCS(=O)(=O)CC4)cc3)n2n1)C1CC1` ?
200

###

- measurement.protocol: Cmax in rat at 5 mg/kg, po
- Format: ADME, organism-based
- Set-up: dose 5 mg/kg, route oral
- conditions.used: in vivo
observation.type: Cmax (ng/mL)
State just the number; it will be interpreted in ng/mL.

What does the record list as Cmax for O=C(Nc1nc2cccc(-c3ccc(CN4CCS(=O)(=O)CC4)cc3)n2n1)C1CC1 [FILGOTINIB] ?
310

###

- system: Tyrosine-protein kinase JAK1 (Homo sapiens, UniProt P23458)
- Sequence (P23458 whole entry): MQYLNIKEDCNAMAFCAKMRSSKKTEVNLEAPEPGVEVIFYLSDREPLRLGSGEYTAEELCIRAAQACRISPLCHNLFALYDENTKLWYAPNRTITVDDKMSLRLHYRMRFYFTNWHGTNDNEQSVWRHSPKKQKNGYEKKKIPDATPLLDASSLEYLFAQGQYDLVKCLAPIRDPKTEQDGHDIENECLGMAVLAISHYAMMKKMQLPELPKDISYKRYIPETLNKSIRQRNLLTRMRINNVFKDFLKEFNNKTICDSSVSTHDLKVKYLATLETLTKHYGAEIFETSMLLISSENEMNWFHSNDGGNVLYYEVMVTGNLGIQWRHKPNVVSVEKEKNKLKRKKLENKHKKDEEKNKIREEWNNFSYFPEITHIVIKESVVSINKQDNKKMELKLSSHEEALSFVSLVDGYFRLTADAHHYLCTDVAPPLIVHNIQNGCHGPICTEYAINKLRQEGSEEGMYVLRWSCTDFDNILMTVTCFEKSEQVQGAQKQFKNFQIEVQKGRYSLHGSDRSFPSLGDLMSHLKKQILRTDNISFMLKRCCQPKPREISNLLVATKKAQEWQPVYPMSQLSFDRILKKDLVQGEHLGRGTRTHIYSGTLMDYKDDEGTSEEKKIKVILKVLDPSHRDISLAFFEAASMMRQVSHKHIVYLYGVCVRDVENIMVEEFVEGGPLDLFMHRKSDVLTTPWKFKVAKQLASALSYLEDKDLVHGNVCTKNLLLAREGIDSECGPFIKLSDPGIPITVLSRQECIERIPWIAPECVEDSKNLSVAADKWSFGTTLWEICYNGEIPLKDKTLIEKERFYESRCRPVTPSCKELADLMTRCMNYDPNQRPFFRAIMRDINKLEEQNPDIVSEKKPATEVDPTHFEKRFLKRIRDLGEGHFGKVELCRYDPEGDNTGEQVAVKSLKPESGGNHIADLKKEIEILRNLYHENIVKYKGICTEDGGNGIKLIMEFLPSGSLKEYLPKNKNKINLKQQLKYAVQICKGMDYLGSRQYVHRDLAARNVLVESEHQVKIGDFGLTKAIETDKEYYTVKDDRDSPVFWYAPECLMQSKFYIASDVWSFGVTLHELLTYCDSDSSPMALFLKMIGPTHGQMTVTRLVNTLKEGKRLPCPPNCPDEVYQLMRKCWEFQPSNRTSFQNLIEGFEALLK
- measurement.protocol: Inhibition of human recombinant JAK1
- conditions.used: read-out: IC50
observation.type: pIC50
Note on pIC50: it is the negative log10 of concentration, concentration in mol/L.

Any idea what its pIC50 is? The molecule is `O=C(Nc1nc2cccc(-c3cn[nH]c3)n2n1)C1CC1`
5.87

Query `COc1ccc(-c2cccc3nc(Nc4ccc(NC(C)=O)cc4)nn23)cc1` next
8.55

Same thing, different molecule: `COc1ccc(-c2cccc3nc(NS(=O)(=O)C4CC4)nn23)cc1`
5.24

Likewise for `O=C(Nc1nc2cccc(-c3ccc(Cl)cc3)n2n1)C1CC1` ?
6.81

###

- system: Tyrosine-protein kinase JAK1 (Homo sapiens, UniProt P23458)
- measurement.protocol: Inhibition of human recombinant JAK1
- conditions.used: read-out: IC50
Binary call on IC50 with cut-off 100 nM: strictly below means criterion met, and equality or higher means criterion not met.

Please review the entries below; each comes with its answer.
COc1ccc(-c2cccc3nc(NC(=O)C4(C)CC4)nn23)cc1	criterion not met
COc1ccc(-c2cccc3nc(N(C)C)nn23)cc1	criterion not met
O=C(Nc1nc2cccc(-c3ccccc3)n2n1)C1CC1	criterion not met
COCc1cccc(-c2cccc3nc(NC(=O)C4CC4)nn23)c1	criterion not met
CCOc1ccc(-c2cccn3nc(NC(=O)C4CC4)nc23)cc1	criterion met

Answer whether the molecule `COc1ccc(-c2cccc3nc(NC(=O)C(C)C)nn23)cc1` has IC50 strictly less than 100 nM
criterion not met

# repeat for `COc1ccc(-c2cccc3nc(NC(=O)C4CC4)nn23)cc1`
criterion met

###

- measurement.protocol: Kinetic solubility of the compound at pH 7.4
- conditions.used: buffer
observation.type: solubility kinetic

Previously resolved entries follow.
O=C(Nc1nc2cccc(-c3ccc(CNC(=O)C(F)(F)F)cc3)n2n1)C1CC1	> 80 µg/mL
O=C(Nc1nc2cccc(-c3ccc(Cc4ccc(O)c(CO)c4)cc3)n2n1)C1CC1	28 µg/mL
N#CCc1ccccc1NCc1ccc(-c2cccc3nc(NC(=O)C4CC4)nn23)cc1	9.4 µg/mL

Given the compound O=C(Nc1nc2cccc(-c3ccc(CNC4CCS(=O)(=O)C4)cc3)n2n1)C1CC1 (stereo not drawn) , what is its reported solubility kinetic?
> 85 µg/mL

Another compound to look at: `O=C(Nc1nc2cccc(-c3ccc(CN4CCOCC4)cc3)n2n1)C1CC1`
> 38 µg/mL

And what about the compound `O=C(NCCc1ccn(-c2ccccc2)n1)c1ccc(-c2cccc3nc(NC(=O)C4CC4)nn23)cc1` ?
4 µg/mL

Try `O=C(Nc1nc2cccc(-c3ccc(CN4CCC(F)(F)CC4)cc3)n2n1)C1CC1` next.
27 µg/mL

Would you kindly repeat that for O=C(Nc1nc2cccc(-c3ccc(CN4CCS(=O)(=O)CC4)cc3)n2n1)C1CC1 [FILGOTINIB] ?
> 85 µg/mL

Reference source: ChEMBL document CHEMBL3351789
